- runDescription: Nile Red efflux blockade in pump-expressing yeast – validation compound set, multiplex, phenotypic, pilot screen (AID 588506);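 further: Nile Red retained in cells so higher fluorescence means more efflux inhibition; 0 = negative control wells and 1 = enniatin B 25 µM full block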
- conditionLabel: S. cerevisiae pump-expressing triplex, Nile Red efflux flow cytometry; at 10 µM; the pumps come from Candida albicans
Calls of active or inactive are those of the source.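 How the source made its calls: active means efflux inhibition above 0.42, the validation set average plus 4 SD; inconclusive means no clear call, values can overlap the other calls; inactive means the rest.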
Outcomes: active, inactive

* O=CNC1CCCc2c1[nH]c1ccc(Cl)cc21 (stereo not drawn) | inactive
* O=c1nc2sc3ccccc3n2c(=O)n1-c1ccc(Cl)cc1 | inactive
* C=CCC1(Cl)C(=O)C(Cl)=C(N2CCOCC2)C1(OC)OC (stereo not drawn) | inactive
* CN1CCN(C2=Nc3ccccc3Oc3ccc(Cl)cc32)CC1 | inactive
* CC1CCN(C(=O)Oc2ccccc2)CC1 | inactive
* Cc1ccc(S(=O)(=O)NC(C(=O)Oc2cc3oc(=O)cc(C)c3cc2Cl)C(C)C)cc1 (stereo not drawn) | inactive
* C#C[C@]1(O)CC[C@H]2[C@@H]3CCC4=CC(=O)CC[C@@H]4[C@H]3CC[C@@]21CC | inactive
* COc1ccc(CCNC(=O)c2ccc(Cl)cc2)cc1OC | inactive
* COc1cc(CNc2nnnn2C)ccc1OCc1ccc(F)cc1Cl | active
* O=C1CCCC(=O)C1=Cc1c[nH]c2ccccc12 | inactive
* CCNC(=S)N1CCN(CCN2C(=O)c3cccc4cccc(c34)C2=O)CC1 | inactive
* CC(=O)CC(c1ccc([N+](=O)[O-])cc1)c1c(O)c2ccccc2oc1=O (stereo not drawn) | inactive
* Cc1ccc(C2CC(=O)C(C=NCCN3CCN(CC(=O)Nc4cc(C)cc(C)c4)CC3)=C(O)C2)cc1 (stereo not drawn) | inactive
* COc1cc2c(cc1OC)C1(CCCC1)CNC2c1cccc([N+](=O)[O-])c1 (stereo not drawn) | inactive
* COC(=O)c1[nH]c2ccc(C)cc2c1NC(=O)CN1CCc2cc(OC)c(OC)cc2C1 | active
* Cc1ccc2nc(N=C(N)N)nc(C)c2c1 | inactive
* C#C[C@]1(O)CC[C@H]2[C@@H]3CCc4cc(OC)ccc4[C@H]3CC[C@@]21C | inactive
* CC(C)OC(=O)C1C(=O)CC(C)(O)C(C(=O)OC(C)C)C1c1cccc(O)c1 (stereo not drawn) | inactive
* COc1ccc(-c2[nH]ncc2CN(C)C(C)c2ccon2)c(OC)c1 (stereo not drawn) | inactive
* CCCCCCCC(=O)OCC(O)CO (stereo not drawn) | inactive
* O=Cc1ccc(O)c(O)c1 | inactive
* CCOc1ccc(C(=O)C(C)=O)c(OCC)c1 | inactive
* CC12COC3(C(=O)Nc4ccc(F)cc4)CC1CCC32C (stereo not drawn) | inactive

----------
- assayTarget: ATP-binding cassette sub-family B member 6 (Homo sapiens)
- runDescription: blockers of ABCB6-driven porphyrin uptake – K562-ABCB6 cells, flow cytometry, validation set, pilot screen (AID 588550);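 further: 0% = DMSO wells and 100% = benzethonium chloride 70 µM positive control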
- conditionLabel: K562-ABCB6 porphyrin accumulation, 1 h, at 10 µM, active compounds read high
Calls of active or inactive are those of the source.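 Rule for the calls: active = inhibition above the screen-wide mean plus 3 SD, about 51%; inactive = the rest.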
Listed molecules paired with reported inhibition
recordedEndpoint: inhibition

* COc1ccccc1/C=C/C(=O)c1c2c(c(C)[nH]c1=O)CCCC2 | 4% (inactive)
* OC(CCN1CCCCC1)(c1ccccc1)c1ccccc1 | 8% (inactive)
* NC(=O)c1cccnc1 | 9% (inactive)
* C[C@]12CC[C@H]3[C@@H](CCC4=CC(=O)CC[C@@]43C)[C@@H]1CC[C@@H]2C(=O)CO | 7% (inactive)
* O=C(O)CP(=O)(O)O | 16% (inactive)
* CN1CCCN(C(c2ccccc2)c2ccc(Cl)cc2)CC1 (stereo not drawn) | 2% (inactive)
* COc1cccc2cc(-c3ccccc3)c(=O)oc12 | 2% (inactive)
* CCOC(=O)N1c2ccccc2C=CC1OCC (stereo not drawn) | -3% (inactive)
* N=c1nc(N2CCCCC2)cc(N)n1O | 115% (active)
* COc1cc(NC(=S)NN2CCN(C)CC2)cc(OC)c1OC | 13% (inactive)
* COC(=O)C1=C(C)N(Cc2ccco2)C(=O)/C1=C\c1ccc([N+](=O)[O-])cc1 | -55% (inactive)
* OC12CCCCC1C(c1ccc3c(c1)OCO3)N(Cc1cccc(F)c1)CC2 (stereo not drawn) | 0% (inactive)
* O=C(COc1ccccc1)Nc1ccc2c(c1)C(=O)N(CC1CCCO1)C2=O (stereo not drawn) | -12% (inactive)
* C=CCn1c(N2CCCCCC2)nc2c1c(=O)n(C)c(=O)n2C | 7% (inactive)
* Cn1c(=S)n(C)c2ccccc21 | 7% (inactive)
* COC(=O)CCC(=O)CN | 5% (inactive)
* Cc1cccc(NC(=O)c2cc3ccccc3o2)c1 | 17% (inactive)
* Fc1ccc(C(c2ccc(F)cc2)N2CCN(C/C=C/c3ccccc3)CC2)cc1 | 1% (inactive)

----------
- runDescription: reduced mouse 2C T cell binding to pMHC/ICAM-1 vesicles – MLPCN validation set, flow cytometry, LFA-1/ICAM-1 modulator project, pilot screen (AID 2523);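 further: mean PE anti-B7-1 fluorescence of CD8+ cells relative to row control; 100% = QL9-loaded vesicles with DMSO vehicle in the same plate row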
- conditionLabel: 2C mouse CD8+ T cells, at 7 µM, active compounds read low
Define the label as Criterion met when vesicle binding response is strictly less than 200% and as Criterion not met in all remaining cases.

* CC(C)(C)N1NC2(CCCCC2)NC1=S | Criterion met
* Cc1cc(=O)oc2c(CN(C)Cc3ccccc3)c(O)ccc12 | Criterion not met
* CCN(CC)CC#CCOC(=O)C(O)(c1ccccc1)C1CCCCC1 (stereo not drawn) | Criterion met
* NCc1ccccc1COc1ccccc1 | Criterion met
* C[C@]12CC[C@@H]3c4ccc(O)cc4C(=O)C[C@H]3[C@@H]1CC[C@@H]2O | Criterion met
* NS(=O)(=O)c1cc2c(cc1C(F)(F)F)NC(Cc1ccccc1)NS2(=O)=O (stereo not drawn) | Criterion met
* CC(=O)Nc1ccc2[nH]c(C)c(CC=C(Cl)Cl)c(=O)c2c1 | Criterion met
* Nc1ccc2nc(Cc3ccccc3)[nH]c2c1 | Criterion met
* COC(=O)c1cc(COc2ccc3ccc(=O)oc3c2)c(C)o1 | Criterion met
* COc1ccc2c(c1)c(=O)oc1cc3occ(C(C)(C)C)c3cc12 | Criterion met
* CC(=O)O[C@]1(C(C)=O)CC[C@H]2[C@@H]3C[C@H](C)C4=CC(=O)CC[C@]4(C)[C@H]3CC[C@@]21C | Criterion not met
* CC(=O)[C@@H]1[C@@H](C(=O)c2ccc(C)cc2)[C@]2(C(=O)Nc3ccccc32)[C@H]2C=Cc3cc(F)ccc3N12 | Criterion met
* OC(CCN1CCCC1)(c1ccccc1)C1CCCCC1 (stereo not drawn) | Criterion not met
* Cc1cc(OC(=O)CNC(=O)OC(C)(C)C)c2c(C)cc(=O)oc2c1 | Criterion not met
* OCCN(CCO)c1nc(N2CCCCC2)c2nc(N(CCO)CCO)nc(N3CCCCC3)c2n1 | Criterion met
* CC(=O)NC(NC(=S)N1CCCCCC1)C(Cl)(Cl)Cl (stereo not drawn) | Criterion met

----------
- runDescription: Nile Red efflux blockade in pump-expressing yeast – validation compound set, multiplex, phenotypic, pilot screen (AID 588506);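 further: Nile Red retained in cells so higher fluorescence means more efflux inhibition; 0 = negative control wells and 1 = enniatin B 25 µM full block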
- conditionLabel: S. cerevisiae pump-expressing triplex, Nile Red efflux flow cytometry; at 10 µM; the pumps come from Candida albicans
Activity calls are given as the source filed them.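 How the source made its calls: active means efflux inhibition above 0.42, the validation set average plus 4 SD; inconclusive means no clear call, values can overlap the other calls; inactive means the rest.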
Outcomes: active, inactive

- COc1ccc(OC(C)C(=O)Nc2ccccc2F)cc1 (stereo not given): inactive
- O=C(CSCc1ccccc1)NCCCN1CCOCC1: inactive
- O=C(NCc1ccc(N2CCCC2=O)cc1)c1ccc(F)cc1: inactive
- CC(C)(C)NCC(O)COc1ccccc1C(=O)CCc1ccccc1 (stereo not given): inactive
- CC(=O)[C@@]1(O)CC[C@H]2[C@@H]3C[C@H](C)C4=CC(=O)CC[C@]4(C)[C@H]3CC[C@@]21C: inactive
- CCOC(=O)C1C(=O)OC(C)(C)C1C(C)C(=O)c1ccc(C)cc1 (stereo not given): inactive
- COc1cc(C2Nc3ccccc3C(=O)N2c2ccccc2)ccc1O (stereo not given): inactive
- COc1ccc(-c2noc(-c3ccccc3-c3ccccc3)n2)cc1: inactive
- CC1(C)O[C@@H]2C[C@H]3[C@@H]4C[C@H](F)C5=CC(=O)C=C[C@]5(C)[C@@]4(F)[C@@H](O)C[C@]3(C)[C@]2(C(=O)CO)O1: inactive
- COc1ccc(C(=O)Nc2ncc3c(n2)CC(C)CC3=O)cc1 (stereo not given): inactive
- CC(C)CN1CCN(Cc2cccn2-c2ccccn2)CC1CCO (stereo not given): active
- COc1cc2c(cc1OC)C(=S)NC(C)(C)C2: inactive
- c1ccc2[nH]c(-c3cscn3)nc2c1: inactive
- CC(C)COCC1CC2(CC(C)(c3csc(N)n3)OC2=O)C(=O)O1 (stereo not given): inactive
- COC(=O)CSc1nc2ccc(N)cc2s1: inactive
- COc1cccc2cc(-c3ccccc3)c(=O)oc12: inactive
- Cc1[nH]c2ccccc2c1/C=C/c1nc2ccccc2c(=O)n1CCO: inactive
- Cc1ccc2ncnc(NCCCCCC(=O)O)c2c1: inactive
- Cc1[nH]nc(-c2ccc(O)cc2O)c1Oc1ccccc1: inactive
- O=C(CCc1ccccc1)Nc1ccccc1C(F)(F)F: inactive
- Cc1ccc2[nH]c3c(c2c1)CCNC3=O: inactive
- O=C(NCCc1c[nH]c2ccccc12)c1cccnc1: inactive
- O=C(/C=C/Sc1ccccc1)c1ccccc1: inactive
- C=C(C)Cn1c(NCCOC)nc2c1c(=O)[nH]c(=O)n2C: inactive
- S=C(NCc1ccccc1)NCc1cccc(CNC(=S)NCc2ccccc2)c1: inactive
- COc1ccc(CN2CCC(=O)NC2=O)cc1: inactive
- O=C(Nc1ccc(C(=O)NC2CCCCC2)cc1)c1cccnc1: inactive
- O=C(O)C1CSC(c2ccco2)N1 (stereo not given): inactive
- N#C/C(=C/c1ccccc1)C(=O)NCc1ccccc1: inactive
- Nc1nnc(CSCc2ccc(Cl)cc2Cl)s1: active
- CC(C)(Sc1cc(C(C)(C)C)c(O)c(C(C)(C)C)c1)Sc1cc(C(C)(C)C)c(O)c(C(C)(C)C)c1: inactive
- O=C(OCC1CCCN2CCCCC12)c1ccc2c(c1)OCO2 (stereo not given): inactive
- CC(C)(C)N1NC2(CCCCC2)NC1=S: inactive
- COc1cccc(=O)c2c(C)n(CC(=O)c3ccccc3)c(C)c12: inactive
- COc1ccc(NC(=O)CC2C(=O)N(C)C(=S)N2Cc2ccncc2)cc1 (stereo not given): inactive
